B1: ATL3 (parent)
chain: HFKKTKKMGGKDFSFRYQQELEEE

- Variants of: B1
- assayInfo: protein stability index of a GFP-peptide fusion (GPS, HEK-293T) (PSI 1-6); higher = more stable;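 further: lentivirally expressed fusions sorted by FACS into six bins by GFP to DsRed ratio, PSI derived from sequencing read proportions per bin multiplied by bin number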
- conditionDetails: c terminus: a fixed tail appended
protein stability index values by entry
measurementLabel: protein stability index

- residueSequence: "HFKKTKKMGGKDQSFRYQQELEEE"
  measurementLabel: "protein stability index"
  recordedMeasurement: 5.21
- residueSequence: "NFKKTKKMGGKDFSFRYQQELEEE"
  measurementLabel: "protein stability index"
  recordedMeasurement: 2.03
- residueSequence: "HMKKTKKMGGKDFSFRYQQELEEE"
  measurementLabel: "protein stability index"
  recordedMeasurement: 2.76
- residueSequence: "HFKKTKKMGGKDFSFRYQEELEEE"
  measurementLabel: "protein stability index"
  recordedMeasurement: 2.45
- residueSequence: "HFKKTKTMGGKDFSFRYQQELEEE"
  measurementLabel: "protein stability index"
  recordedMeasurement: 1.9
- residueSequence: "HFKKTTKMGGKDFSFRYQQELEEE"
  measurementLabel: "protein stability index"
  recordedMeasurement: 1.96
- residueSequence: "HFKKTKKTGGKDFSFRYQQELEEE"
  measurementLabel: "protein stability index"
  recordedMeasurement: 2.63
- residueSequence: "HFKKTCKMGGKDFSFRYQQELEEE"
  measurementLabel: "protein stability index"
  recordedMeasurement: 2.15
- residueSequence: "HFKKTKKMGGKDFWFRYQQELEEE"
  measurementLabel: "protein stability index"
  recordedMeasurement: 4.01
- residueSequence: "HFKKTKKMGGKDFSFRYQQWLEEE"
  measurementLabel: "protein stability index"
  recordedMeasurement: 2
- residueSequence: "HFKKTKMMGGKDFSFRYQQELEEE"
  measurementLabel: "protein stability index"
  recordedMeasurement: 2.88
- residueSequence: "FFKKTKKMGGKDFSFRYQQELEEE"
  measurementLabel: "protein stability index"
  recordedMeasurement: 1.88
- residueSequence: "LFKKTKKMGGKDFSFRYQQELEEE"
  measurementLabel: "protein stability index"
  recordedMeasurement: 1.65
- residueSequence: "HFKKTEKMGGKDFSFRYQQELEEE"
  measurementLabel: "protein stability index"
  recordedMeasurement: 2.1
- residueSequence: "HFKKTKKMAGKDFSFRYQQELEEE"
  measurementLabel: "protein stability index"
  recordedMeasurement: 1.41
- residueSequence: "HFKKTKKMGGKDFSFRYQQEDEEE"
  measurementLabel: "protein stability index"
  recordedMeasurement: 4.71
- residueSequence: "HFKKTKKMGGKDFSFRYQQNLEEE"
  measurementLabel: "protein stability index"
  recordedMeasurement: 3.16
- residueSequence: "HFKKTKKMGGKDFSFRYQQELVEE"
  measurementLabel: "protein stability index"
  recordedMeasurement: 2.41
- residueSequence: "HFKKTKKGGGKDFSFRYQQELEEE"
  measurementLabel: "protein stability index"
  recordedMeasurement: 3.01
- residueSequence: "HFKKTKKMGGKDASFRYQQELEEE"
  measurementLabel: "protein stability index"
  recordedMeasurement: 5.27
- residueSequence: "HFKKTKKMGGKDFSFRYQQELEEG"
  measurementLabel: "protein stability index"
  recordedMeasurement: 2.63
- residueSequence: "HIKKTKKMGGKDFSFRYQQELEEE"
  measurementLabel: "protein stability index"
  recordedMeasurement: 2.65
- residueSequence: "HFKKTKKMGGKDFSFRYQPELEEE"
  measurementLabel: "protein stability index"
  recordedMeasurement: 3.56
- residueSequence: "HFKKTKKMGGKDFSFRYQRELEEE"
  measurementLabel: "protein stability index"
  recordedMeasurement: 2.52
- residueSequence: "HFRKTKKMGGKDFSFRYQQELEEE"
  measurementLabel: "protein stability index"
  recordedMeasurement: 2.42
- residueSequence: "HFMKTKKMGGKDFSFRYQQELEEE"
  measurementLabel: "protein stability index"
  recordedMeasurement: 2.71
- residueSequence: "HFKKTKKMGGKDCSFRYQQELEEE"
  measurementLabel: "protein stability index"
  recordedMeasurement: 4.74
- residueSequence: "HVKKTKKMGGKDFSFRYQQELEEE"
  measurementLabel: "protein stability index"
  recordedMeasurement: 2.62
- residueSequence: "HFKKTKKMGGKDFSFRYQQEMEEE"
  measurementLabel: "protein stability index"
  recordedMeasurement: 1.53
- residueSequence: "HFKKTKKMGGKDHSFRYQQELEEE"
  measurementLabel: "protein stability index"
  recordedMeasurement: 2.79
- residueSequence: "HFKKTKVMGGKDFSFRYQQELEEE"
  measurementLabel: "protein stability index"
  recordedMeasurement: 1.84
- residueSequence: "HFKKTKKMGGSDFSFRYQQELEEE"
  measurementLabel: "protein stability index"
  recordedMeasurement: 2.4
- residueSequence: "HFKKKKKMGGKDFSFRYQQELEEE"
  measurementLabel: "protein stability index"
  recordedMeasurement: 2.22
- residueSequence: "HFKKTKKMGGKDFSFQYQQELEEE"
  measurementLabel: "protein stability index"
  recordedMeasurement: 3.08
- residueSequence: "HFKKTKKMGGKDFSFRYQQELECE"
  measurementLabel: "protein stability index"
  recordedMeasurement: 3.01
- residueSequence: "HFKKTKKMGGKMFSFRYQQELEEE"
  measurementLabel: "protein stability index"
  recordedMeasurement: 1.46
- residueSequence: "HFKKTKKMGGKDFSFRYQQELFEE"
  measurementLabel: "protein stability index"
  recordedMeasurement: 1.85
- residueSequence: "HFKKTKKMGGKDFPFRYQQELEEE"
  measurementLabel: "protein stability index"
  recordedMeasurement: 3.12
- residueSequence: "HFKKQKKMGGKDFSFRYQQELEEE"
  measurementLabel: "protein stability index"
  recordedMeasurement: 1.8
- residueSequence: "HFKKTKKMGGKDFSFRYQQELEER"
  measurementLabel: "protein stability index"
  recordedMeasurement: 3.35
- residueSequence: "HFKKTKKMGGKDFSFRYQQALEEE"
  measurementLabel: "protein stability index"
  recordedMeasurement: 3.31
- residueSequence: "HFKKTKKYGGKDFSFRYQQELEEE"
  measurementLabel: "protein stability index"
  recordedMeasurement: 1.99
- residueSequence: "HFKKTKKMGGKDFSFRYIQELEEE"
  measurementLabel: "protein stability index"
  recordedMeasurement: 1.85
- residueSequence: "HFKKTKKMGGKDFDFRYQQELEEE"
  measurementLabel: "protein stability index"
  recordedMeasurement: 4.48
- residueSequence: "HFKGTKKMGGKDFSFRYQQELEEE"
  measurementLabel: "protein stability index"
  recordedMeasurement: 2.67
- residueSequence: "HFKKTKKMGGKDFSFRYQQMLEEE"
  measurementLabel: "protein stability index"
  recordedMeasurement: 3.43
- residueSequence: "HFKKTKKMGGKDFSFRYQQELEEF"
  measurementLabel: "protein stability index"
  recordedMeasurement: 2.01
